Target: human GPR119 (hGPR119) (Homo sapiens)
Construct: expressed in transfected cells
Sequence (Q8TDV5 1-335): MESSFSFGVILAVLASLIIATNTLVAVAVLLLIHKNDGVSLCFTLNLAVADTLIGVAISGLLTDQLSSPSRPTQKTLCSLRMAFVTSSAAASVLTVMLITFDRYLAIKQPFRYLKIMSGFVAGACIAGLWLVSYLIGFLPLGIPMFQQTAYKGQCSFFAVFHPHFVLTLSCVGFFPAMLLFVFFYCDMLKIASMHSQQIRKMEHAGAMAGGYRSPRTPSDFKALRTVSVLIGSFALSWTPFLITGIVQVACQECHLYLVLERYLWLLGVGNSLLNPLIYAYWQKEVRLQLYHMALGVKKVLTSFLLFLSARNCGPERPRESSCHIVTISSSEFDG
Assay: cAMP accumulation assay (cAMP Gs dynamic HTRF kit)
Assay type: cell-based
Details: 1 h; CHO-K1 cells stably expressing hGPR119; % activity normalized to Max/Min controls; 4-parameter fit
For each record, write down the corresponding Emax.

-- ask # value lookup — system human GPR119 (hGPR119) (Homo sapiens), readout Emax, item O=C(Cc1ccc(OCCCC2CCN(c3ncc(Cl)cn3)CC2)cc1F)NCCS(=O)(=O)O [Example 10]
-- reply ≥ 130%

-- ask # value lookup — system human GPR119 (hGPR119) (Homo sapiens), readout Emax, item O=C(CC1CN(C(=O)Cc2ccc(OCCCC3CCN(c4ncc(Cl)cn4)CC3)cc2F)C1)NC(CO)(CO)CO [Example 32]
-- reply 100 to 130%

-- ask # value lookup — system human GPR119 (hGPR119) (Homo sapiens), readout Emax, item NS(=O)(=O)CCCNC(=O)Cc1ccc(OCCCC2CCN(c3ncc(Cl)cn3)CC2)cc1F [Example 13]
-- reply ≥ 130%

-- ask # value lookup — system human GPR119 (hGPR119) (Homo sapiens), readout Emax, item O=C(Cc1ccc(OCCCC2CC23CCN(c2ncc(Cl)cn2)CC3)cc1F)N1CC(CNC[C@H](O)[C@@H](O)[C@H](O)[C@H](O)CO)C1 (stereo partly drawn) [Example 142]
-- reply 100 to 130%

-- ask # value lookup — system human GPR119 (hGPR119) (Homo sapiens), readout Emax, item O=C(Cc1ccc(OCCCC2CCN(c3ncc(Cl)cn3)CC2)cc1F)NCCCCS(=O)(=O)O [Example 12]
-- reply ≥ 130%

-- ask # value lookup — system human GPR119 (hGPR119) (Homo sapiens), readout Emax, item CCOc1cnc(N2CCC(CCCOc3cc(F)c(CC(=O)N4CC[C@@H](CNCC(CO)(CO)CO)C4)c(F)c3)CC2)nc1 [Example 157]
-- reply ≥ 130%

-- ask # value lookup — system human GPR119 (hGPR119) (Homo sapiens), readout Emax, item COCc1cnc(N2CCC([C@H]3C[C@H]3COCc3ccc(CC(=O)N4CC(CNC[C@H](O)[C@@H](O)[C@H](O)[C@H](O)CO)C4)c(F)c3)CC2)nc1 [Example 96]
-- reply 100 to 130%

-- ask # value lookup — system human GPR119 (hGPR119) (Homo sapiens), readout Emax, item CCCc1cnc(N2CCC(CCCOc3ccc(CC(=O)N4CC(CNC(CO)(CO)CO)C4)c(F)c3)CC2)nc1 [Example 72]
-- reply ≥ 130%

-- ask # value lookup — system human GPR119 (hGPR119) (Homo sapiens), readout Emax, item COCc1cnc(N2CCC(CCCOc3cc(F)c(CC(=O)N4CC[C@@H](CNC[C@H](O)[C@@H](O)[C@H](O)[C@H](O)CO)C4)c(F)c3)CC2)nc1 [Example 135]
-- reply 100 to 130%

-- ask # value lookup — system human GPR119 (hGPR119) (Homo sapiens), readout Emax, item CCOc1cnc(N2CCC(CCCOc3ccc(CC(=O)N4CC[C@@H](CNC(CO)(CO)CO)C4)c(F)c3)CC2)nc1 [Example 152]
-- reply ≥ 130%

-- ask # value lookup — system human GPR119 (hGPR119) (Homo sapiens), readout Emax, item COCc1cnc(N2CCC(CCCOc3ccc(CC(=O)N4CC(CNC[C@H](O)[C@@H](O)[C@H](O)[C@H](O)CO)C4)c(F)c3)CC2)nc1 [Example 83]
-- reply 100 to 130%

-- ask # value lookup — system human GPR119 (hGPR119) (Homo sapiens), readout Emax, item O=C(Cc1c(F)cc(OCCC2CC3(CCN(c4ncc(Cl)cn4)CC3)C2)cc1F)N1CC(CNC[C@H](O)[C@@H](O)[C@H](O)[C@H](O)CO)C1 [Example 115]
-- reply 100 to 130%

---

Molecular target: human GPR119 (hGPR119) (Homo sapiens, UniProt Q8TDV5)
Assay: cAMP accumulation assay (cAMP Gs dynamic HTRF kit)
Settings: CHO-K1 cells stably expressing hGPR119; cAMP accumulation; 4-parameter fit
Measurement kind: EC50

-- ask What does the data say about its EC50? Entry: COCc1cnc(N2CCC(CCCOc3cc(F)c(CC(=O)N4CC[C@@H](CNC(CO)(CO)CO)C4)c(F)c3)CC2)nc1
-- reply ≤ 100 nM

-- ask What does the data say about its EC50? Entry: NS(=O)(=O)CCCNC(=O)Cc1ccc(OCCCC2CCN(c3ncc(Cl)cn3)CC2)cc1F
-- reply ≤ 100 nM

-- ask What does the data say about its EC50? Entry: O=C(Cc1ccc(OCCCC2CCN(c3ncc(Cl)cn3)CC2)cc1F)N1CCC(O)(CNCC(CO)(CO)CO)C1 (stereo not shown)
-- reply ≤ 100 nM

-- ask What does the data say about its EC50? Entry: O=C(Cc1ccc(OCCCC2CCN(c3ncc(Cl)cn3)CC2)cc1F)N1CC[C@@H](CNC(CO)(CO)CO)C1
-- reply ≤ 100 nM

-- ask What does the data say about its EC50? Entry: O=C(Cc1ccc(OCCCC2CCN(c3ncc(Cl)cn3)CC2)cc1F)N1CC(CN2C[C@@H](O)[C@@H](O)C2)C1
-- reply ≤ 100 nM

-- ask What does the data say about its EC50? Entry: CCc1cnc(N2CCC(CCCOc3ccc(CC(=O)N4CC(CNCC(O)(CO)CO)C4)c(F)c3)CC2)nc1
-- reply ≤ 100 nM

-- ask What does the data say about its EC50? Entry: O=C(Cc1ccc(OCCCC2CCN(c3ncc(Cl)cn3)CC2)cc1F)N1CC(CN2C[C@@H](O)[C@@H](O)[C@@H](O)C2)C1
-- reply ≤ 100 nM

-- ask What does the data say about its EC50? Entry: CC[N+](CC)(CC)CCCCCNC(=O)Cc1ccc(OCCCC2CCN(c3ncc(Cl)cn3)CC2)cc1F
-- reply 100 to 1000 nM

-- ask What does the data say about its EC50? Entry: O=C(Cc1c(F)cc(OCCCC2CC3(CCN(c4ncc(Cl)cn4)CC3)C2)cc1F)N1CC(CNC[C@H](O)[C@@H](O)[C@H](O)[C@H](O)CO)C1
-- reply ≤ 100 nM

-- ask What does the data say about its EC50? Entry: O=C(Cc1ccc(OCCCC2CCN(c3ncc(Cl)cn3)CC2)cc1F)N1CC[C@@H](CNC[C@H](O)[C@@H](O)[C@H](O)[C@H](O)CO)C1
-- reply ≤ 100 nM

---

Target: human GPR119 (hGPR119) (Homo sapiens, UniProt Q8TDV5)
Construct: expressed in transfected cells
Assay: cAMP accumulation assay (cAMP Gs dynamic HTRF kit)
Format: cell-based
Conditions: CHO-K1 cells stably expressing hGPR119; cAMP accumulation; 4-parameter fit
For each record, write down the corresponding EC50.

-- ask # value lookup — system human GPR119 (hGPR119) (Homo sapiens, UniProt Q8TDV5), readout EC50, item O=C(NC(CO)(CO)CO)C1CN(C(=O)Cc2ccc(OCCCC3CCN(c4ncc(Cl)cn4)CC3)cc2F)C1 [Example 29]
-- reply ≤ 100 nM

-- ask # value lookup — system human GPR119 (hGPR119) (Homo sapiens, UniProt Q8TDV5), readout EC50, item O=C(OC[C@@H]1C[C@@H]1C1CCN(c2ncc(Cl)cn2)CC1)c1ccc(CC(=O)N2CC(CNC[C@H](O)[C@@H](O)[C@H](O)[C@H](O)CO)C2)c(F)c1 (racemic) [Example 95]
-- reply 100 to 1000 nM

-- ask # value lookup — system human GPR119 (hGPR119) (Homo sapiens, UniProt Q8TDV5), readout EC50, item CCOc1cnc(N2CCC(CCCOc3cc(F)c(CC(=O)N4CC[C@@H](CNCC(O)(CO)CO)C4)c(F)c3)CC2)nc1 [Example 156]
-- reply ≤ 100 nM

-- ask # value lookup — system human GPR119 (hGPR119) (Homo sapiens, UniProt Q8TDV5), readout EC50, item CC1(OC(=O)N2CCC(CCCOc3ccc(CC(=O)N4CC(CNC[C@H](O)[C@@H](O)[C@H](O)[C@H](O)CO)C4)c(F)c3)CC2)CC1 (racemic) [Example 119]
-- reply 100 to 1000 nM

-- ask # value lookup — system human GPR119 (hGPR119) (Homo sapiens, UniProt Q8TDV5), readout EC50, item O=C(Cc1c(F)cc(OCCCC2CC23CCN(c2ncc(Cl)cn2)CC3)cc1F)N1CC(CNC[C@H](O)[C@@H](O)[C@H](O)[C@H](O)CO)C1 (stereo partly shown) [Example 143]
-- reply 100 to 1000 nM

-- ask # value lookup — system human GPR119 (hGPR119) (Homo sapiens, UniProt Q8TDV5), readout EC50, item COCc1cnc(N2CCC(CCCOc3ccc(CC(=O)N4CC(C(=O)NCCNC(=O)NC(CO)(CO)CO)C4)c(F)c3)CC2)nc1 [Example 27]
-- reply 100 to 1000 nM

-- ask # value lookup — system human GPR119 (hGPR119) (Homo sapiens, UniProt Q8TDV5), readout EC50, item O=C(Cc1ccc(OCCCCC2CCN(c3ncc(Cl)cn3)CC2)cc1F)N1CC(CNC[C@H](O)[C@@H](O)[C@H](O)[C@H](O)CO)C1 [Example 54]
-- reply 100 to 1000 nM

-- ask # value lookup — system human GPR119 (hGPR119) (Homo sapiens, UniProt Q8TDV5), readout EC50, item O=C(CC1CN(C(=O)Cc2ccc(OCCCC3CCN(c4ncc(Cl)cn4)CC3)cc2F)C1)NCCCCS(=O)(=O)O [Example 178]
-- reply 100 to 1000 nM

-- ask # value lookup — system human GPR119 (hGPR119) (Homo sapiens, UniProt Q8TDV5), readout EC50, item CCCc1cnc(N2CCC(CCCOc3cc(F)c(CC(=O)NCCCCC[N+](CC)(CC)CC)c(F)c3)CC2)nc1 [Example 4]
-- reply 100 to 1000 nM

-- ask # value lookup — system human GPR119 (hGPR119) (Homo sapiens, UniProt Q8TDV5), readout EC50, item CC(C)OC(=O)N1CCC2(CCC2CCOc2ccc(CC(=O)N3CC(CNC[C@H](O)[C@@H](O)[C@H](O)[C@H](O)CO)C3)c(F)c2)CC1 (stereo partly shown) [Example 140]
-- reply > 10000 nM

-- ask # value lookup — system human GPR119 (hGPR119) (Homo sapiens, UniProt Q8TDV5), readout EC50, item CC(C)OC(=O)N1CCC2(CC1)CC2CCCOc1ccc(CC(=O)N2CC(CNC[C@H](O)[C@@H](O)[C@H](O)[C@H](O)CO)C2)c(F)c1 (stereo partly shown) [Example 145]
-- reply 1000 to 10000 nM

-- ask # value lookup — system human GPR119 (hGPR119) (Homo sapiens, UniProt Q8TDV5), readout EC50, item O=C(Cc1ccc(OCCCC2CCN(c3ncc(Cl)cn3)CC2)cc1F)N1CC(CN2C[C@@H](O)[C@H](O)C2)C1 (stereo in doubt) [Example 47]
-- reply ≤ 100 nM

-- ask # value lookup — system human GPR119 (hGPR119) (Homo sapiens, UniProt Q8TDV5), readout EC50, item CC(C)OC(=O)N1CCC2(CC1)CC(CCOc1ccc(CC(=O)N3CC(CNC[C@H](O)[C@@H](O)[C@H](O)[C@H](O)CO)C3)c(F)c1)C2 [Example 118]
-- reply 100 to 1000 nM

-- ask # value lookup — system human GPR119 (hGPR119) (Homo sapiens, UniProt Q8TDV5), readout EC50, item O=C(Cc1ccc(OCCCC2CCN(c3ncc(Cl)cn3)CC2)cc1F)N1CC(CCNCC(CO)CO)C1 [Example 57]
-- reply ≤ 100 nM

-- ask # value lookup — system human GPR119 (hGPR119) (Homo sapiens, UniProt Q8TDV5), readout EC50, item CCc1cnc(N2CCC(CCCOc3cc(F)c(CC(=O)N4CC(CNCC(O)(CO)CO)C4)c(F)c3)CC2)nc1 [Example 67]
-- reply ≤ 100 nM

-- ask # value lookup — system human GPR119 (hGPR119) (Homo sapiens, UniProt Q8TDV5), readout EC50, item O=C(Cc1ccc(OCC[C@@H]2C[C@@H]2C2CCN(c3ncc(Cl)cn3)CC2)cc1F)N1CC(CNC[C@H](O)[C@@H](O)[C@H](O)[C@H](O)CO)C1 [Example 86]
-- reply 100 to 1000 nM

-- ask # value lookup — system human GPR119 (hGPR119) (Homo sapiens, UniProt Q8TDV5), readout EC50, item COCc1cnc(N2CCC([C@H]3C[C@H]3COCc3ccc(CC(=O)N4CC(CNC[C@H](O)[C@@H](O)[C@H](O)[C@H](O)CO)C4)c(F)c3)CC2)nc1 [Example 96]
-- reply 100 to 1000 nM

-- ask # value lookup — system human GPR119 (hGPR119) (Homo sapiens, UniProt Q8TDV5), readout EC50, item O=C(Cc1ccc(OCCCC2CCN(c3ncc(Cl)cn3)CC2)cc1F)N1CC(CNC[C@H](O)[C@@H](O)[C@H](O)[C@H](O)CO)C1 [Example 42]
-- reply 100 to 1000 nM

-- ask # value lookup — system human GPR119 (hGPR119) (Homo sapiens, UniProt Q8TDV5), readout EC50, item COCc1cnc(N2CCC(CCCOc3cc(F)c(CC(=O)N4CC(CNC[C@H](O)[C@@H](O)[C@H](O)[C@H](O)CO)C4)c(F)c3)CC2)nc1 [Example 94]
-- reply 100 to 1000 nM
